IC50 for assorted compounds
- tgt: recombinant LpxA enzyme (P. aeruginosa) (Pseudomonas aeruginosa)
- protocol: LpxA in vitro substrate acylation assay with RapidFire MS analysis (P. aeruginosa)
- experimentalParameters: P. aeruginosa enzyme 0.5 nM, PaACP-C10, 30 min
- Protocol: Exemplary compounds from the above Examples were tested for ability to inhibit LpxA activity using an in vitro substrate acylation assay with RapidFire™ MS analysis. Assay procedures and results are described below. […]

# compoundStructureString, IC50
records = [
    ("N#Cc1ccc(CN(Cc2nnc(N)o2)C(=O)CSc2cc(CO)ccc2Cl)cc1", "20 to 100 nM"),
    ("N#Cc1ccc(CN(C(=O)CSc2ccccc2Cl)C2(c3nnc(N)o3)CC2)c(F)c1", "20 to 100 nM"),
    ("N#Cc1ccc(CN(Cc2nnc(N)o2)C(=O)c2cc3cccc(Cl)c3s2)c(F)c1", "> 1000 nM"),
    ("CCc1ccccc1SCC(=O)N(Cc1ccc(C#N)cc1)Cc1nnc(N)[nH]1", "20 to 100 nM"),
    ("N#Cc1ccc(CN(Cc2nnc(N)o2)C(=O)CSc2cc(F)ccc2Cl)cc1", "< 20 nM"),
    ("N#Cc1ccc(CN(Cc2nnc(N)o2)C(=O)CCc2ccccc2Cl)cn1", "100 to 1000 nM"),
    ("N#Cc1ccc(CN(Cc2ccc3cn[nH]c3c2)C(=O)CSc2ccccc2Cl)cc1", "> 1000 nM"),
    ("CCc1ccccc1OCC(=O)N(Cc1ccc(C#N)nc1)Cc1nnc(N)o1", "20 to 100 nM"),
]

* * *

- tgt: recombinant LpxA enzyme (P. aeruginosa) (Pseudomonas aeruginosa, UniProt Q9X6P4)
- Sequence (Q9X6P4 whole entry): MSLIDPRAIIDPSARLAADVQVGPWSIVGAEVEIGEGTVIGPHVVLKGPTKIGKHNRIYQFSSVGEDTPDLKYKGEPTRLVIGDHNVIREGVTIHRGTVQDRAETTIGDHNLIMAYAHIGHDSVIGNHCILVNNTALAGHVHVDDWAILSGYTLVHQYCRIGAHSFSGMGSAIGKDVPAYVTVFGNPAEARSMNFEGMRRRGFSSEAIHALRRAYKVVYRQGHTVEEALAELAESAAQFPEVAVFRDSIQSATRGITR
- protocol: LpxA in vitro substrate acylation assay with RapidFire MS analysis (P. aeruginosa)
- experimentalParameters: P. aeruginosa enzyme 0.5 nM, PaACP-C10, 30 min
pIC50: −log10 of the molar value.
quantity: pIC50

# compound, readoutValue
records = [
    ("N#Cc1ccc(CN(Cc2nnc(N)o2)C(=O)CSc2cc(-c3c[nH]cn3)ccc2Cl)c(F)c1 [Compound No. 62]", "6.00 to 7.00"),
    ("Cc1cc(C#N)ccc1CN(Cc1nnc(N)o1)C(=O)CSc1ccccc1Cl [compound 48]", "7.00 to 7.70"),
    ("N#Cc1ccc(CN(Cc2cn[nH]c2)C(=O)CSc2ccccc2Cl)cc1 [compound 50]", "6.00 to 7.00"),
    ("N#Cc1ccc(CN(Cc2nnc(N)o2)C(=O)CSc2cccc(Cl)c2Cl)c(F)c1 [compound 57]", "7.00 to 7.70"),
]

* * *

- Tested on: P. aeruginosa PAO397
- protocol: Broth microdilution MIC, P. aeruginosa PAO397
- Assay type: cell-based
- experimentalParameters: Pseudomonas aeruginosa, PAO397, 18 h, read-out: PAO397 KO MIC

# compoundStructureString, MIC
rows = [
    ("CN1CC(NC(=O)CN(Cc2ccc(C#N)cc2)C(=O)CSc2ccccc2Cl)C1", "1 to 16 µg/mL"),
    ("N#Cc1ccc(CN(Cc2nnc(N)o2)C(=O)CSc2ccccc2Cl)cn1", "< 1 µg/mL"),
    ("N#Cc1ccc(CN(Cc2nnc(N)o2)C(=O)CSc2cc(CCO)ccc2Cl)c(F)c1", "< 1 µg/mL"),
    ("N#Cc1ccc(CN(Cc2nnc(N)o2)C(=O)CSc2cc(F)cc(F)c2Cl)c(F)c1", "< 1 µg/mL"),
    ("N#Cc1ccc(CN(Cc2nnc(N)o2)C(=O)COc2ccccc2C(F)(F)F)cc1", "< 1 µg/mL"),
    ("N#Cc1ccc(CN(Cc2nnc(N)o2)C(=O)COc2ccccc2OC(F)(F)F)c(F)c1", "1 to 16 µg/mL"),
    ("N#Cc1ccc(CN(Cc2nnc(N)o2)C(=O)CSc2cccc(Cl)c2Cl)c(F)c1", "< 1 µg/mL"),
    ("N#Cc1ccc(CN(Cc2nnc(N)o2)C(=O)CSc2cccc(F)c2Cl)c(F)c1", "< 1 µg/mL"),
    ("N#Cc1ccc(CN(Cc2nnc(N)o2)C(=O)CSc2ccccc2OC(F)(F)F)c(F)c1", "< 1 µg/mL"),
    ("Cc1cc(C#N)ccc1CN(Cc1nnc(N)o1)C(=O)CSc1ccccc1Cl", "< 1 µg/mL"),
    ("N#Cc1ccc(CN(C(=O)CSc2ccccc2Cl)C2(c3nnc(N)o3)CC2)cc1", "1 to 16 µg/mL"),
]
